- System: S. aureus strain ATCC29213
- measurement_notes: MIC, broth microdilution antimicrobial susceptibility test (CLSI)
- Type: cell-based
- conditions: Staphylococcus aureus; S. aureus ATCC29213; read-out: MIC against S. aureus
Items are presented alongside their recorded MIC.
measured_endpoint: MIC

molecule	measured_endpoint	value
FC(F)(F)c1ccc(CCN2CCCN(CCc3cc(-c4ccccc4)nc(-c4ccncc4)n3)CC2)cc1 [Compound 14dv_amine20]	MIC	5 to 8 µM
Brc1ccc(CN2CCCN(CCc3cc(-c4ccccc4)nc(-c4ccncc4)n3)CC2)cc1 [Compound 14dv_amine08]	MIC	5 to 8 µM
CCC(CC)c1cc(CCN2CCCN(CCc3ccc(C(F)(F)F)cc3)CC2)nc(-c2ccncc2)n1 [Compound 14av_amine20]	MIC	5 to 8 µM
CC(C)(C)c1ccc(CN2CCCN(CCc3cc(-c4ccccc4)nc(-c4ccncc4)n3)CC2)cc1 [Compound 14dv_amine07]	MIC	5 to 8 µM

###

A collection of compounds and their measured MIC^b: Minimum inhibitory concentration against S. aureus
- System: S. aureus strain ATCC29213
- measurement_notes: MIC, broth microdilution antimicrobial susceptibility test (CLSI)
- Assay type: cell-based
- conditions: S. aureus 29213; growth inhibited by ≥90%, 18 h
measured_endpoint: MIC^b: Minimum inhibitory concentration against S. aureus

compound	value
CCC(CC)c1cc(CCN2CCCN(Cc3ccccc3C(F)(F)F)CC2)nc(-c2ccncc2)n1 [Compound 14av_amine18]	16 µM
Fc1cccc(CN2CCCN(CCc3cc(-c4ccccc4)nc(-c4ccncc4)n3)CC2)c1 [Compound 14dv_amine10]	10 µM
CCC(CC)c1cc(CCN2CCCN(Cc3ccc(C(C)(C)C)cc3)CC2)nc(-c2ccncc2)n1 [Compound 14av_amine07]	16 µM
CCCCCc1cc(CCN2CCCN(Cc3ccc(C(C)C)cc3)CC2)nc(-c2ccncc2)n1 [Compound 14cv_amine06]	10 µM

###

Below is a list of entries, each paired with its recorded MIC^b: Minimum inhibitory concentration against S. aureus value.
- System: S. aureus strain ATCC29213
- measurement_notes: MIC, broth microdilution antimicrobial susceptibility test (CLSI)
- Assay type: cell-based
- conditions: S. aureus 29213; growth inhibited by ≥90%, 18 h
measured_endpoint: MIC^b: Minimum inhibitory concentration against S. aureus (µM)

compound	system_name	value
CCCCCc1cc(CCN2CCCN(Cc3ccc(C(F)(F)F)cc3)CC2)nc(-c2ccncc2)n1 [Compound 14cv_amine16]	S. aureus strain ATCC29213	10
CCC(CC)c1cc(CCN2CCCN(Cc3cccc(C(F)(F)F)c3)CC2)nc(-c2ccncc2)n1 [Compound 14av_amine17]	S. aureus strain ATCC29213	16
CCC(CC)c1cc(CCN2CCN(Cc3ccc(C(F)(F)F)cc3)CC2)nc(-c2ccncc2)n1 [Compound 14av_amine24]	S. aureus strain ATCC29213	12
CCC(CC)c1cc(CCN2CCN(Cc3cccc(C(F)(F)F)c3)CC2)nc(-c2ccncc2)n1 [Compound 14av_amine28]	S. aureus strain ATCC29213	10

###

- Tested on: S. aureus strain ATCC29213
- measurement_notes: MIC, broth microdilution antimicrobial susceptibility test (CLSI)
- Assay type: cell-based
- conditions: Staphylococcus aureus; S. aureus ATCC29213; read-out: MIC against S. aureus
Below, each of the compounds is paired with its reported MIC value.

compound	system_name	MIC
FC(F)(F)c1ccc(CN2CCCN(CCc3cc(-c4ccccc4)nc(-c4ccncc4)n3)CC2)cc1 [Compound 14dv_amine16]	S. aureus strain ATCC29213	5 to 8 µM
CC(C)c1ccc(CN2CCCN(CCc3cc(-c4ccccc4)nc(-c4ccncc4)n3)CC2)cc1 [Compound 14dv_amine06]	S. aureus strain ATCC29213	5 to 8 µM
CCC(CC)c1cc(CCN2CCCN(Cc3ccc(C(F)(F)F)cc3)CC2)nc(-c2ccncc2)n1 [Compound 14av_amine16]	S. aureus strain ATCC29213	5 to 8 µM
